Tested on: OCI-AML2;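 also: after 48 h exposure read by CellTiter-Glo luminescence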
Assay: cell viability relative to vehicle control; higher = less cytotoxic
Conditions: 10 µM; SRSF2 genotype: wt/wt
Structures can show the parent of a compound that is named as a salt.
Please provide measured cell viability for the entries that follow.
Just the number in %, nothing appended.

Data request: Entry CN1[C@@H]2CC[C@H]1C[C@@H](OC(c1ccccc1)c1ccccc1)C2 [Benztropine mesylate] : reported cell viability = ?
Data returned: 79.9

Data request: Let us now turn to COc1c(O)cc2c(c1O)C(=O)c1c(cc(C)c(O)c1OC)C2=O [Aurantio-obtusin]
Data returned: 91.5

Data request: Let us now turn to COc1ccc(-c2coc3cc(O)ccc3c2=O)cc1
Data returned: 80.2

Data request: Let us now turn to CCCCCCCCCCCCCCCCCCCC(=O)O
Data returned: 109

Data request: Let us now turn to C[C@H](CSC(=O)c1ccccc1)C(=O)N1C[C@@H](Sc2ccccc2)C[C@H]1C(=O)O
Data returned: 121

Data request: Let us now turn to COc1cc(C(=O)OCCCCNC(=N)N)cc(OC)c1O
Data returned: 107

Data request: Let us now turn to O=C(Nc1ccc(S(=O)(=O)Nc2ccccc2Cl)c(Cl)c1)c1ccccn1
Data returned: 104

Data request: Let us now turn to C=C1C(=O)O[C@@H]2/C=C(\C)CC/C=C(\C)CC[C@@H]12 [Costunolide]
Data returned: 7.11

Data request: Let us now turn to CCOc1cc(C=O)ccc1OC(C)=O [Ethyl vanillin acetate]
Data returned: 108

Data request: Let us now turn to CN(C)C/C=C/C(=O)Nc1cc2c(Nc3ccc(F)c(Cl)c3)ncnc2cc1O[C@H]1CCOC1
Data returned: 0.13

Data request: Let us now turn to COc1nc(OCc2cccc(-c3ccccc3)c2C)ccc1CNCCNC(C)=O
Data returned: 51.3

Data request: Let us now turn to OCC1OC(Oc2ccc(O)cc2)C(O)C(O)C1O (stereo unspecified)
Data returned: 101

Data request: Let us now turn to COc1cc2ncc(-c3ccccc3)nc2cc1OC
Data returned: 65.6

Data request: Let us now turn to CC(=O)OC(C)C(C)C(=O)OCC12C3CC(C)(C)[C@H](O[C@@H]1C[C@]1(C)C3=CCC3C4(C)CCC(O[C@@H]5O[C@H](C(=O)O)[C@@H](O[C@H]6O[C@H](CO)[C@@H](O)[C@H](O)[C@H]6O)[C@H](O)[C@H]5O[C@@H]5OC[C@@H](O)[C@H](O)[C@H]5O)[C@](C)(CO)C4CCC31C)C2O (stereo partly specified) [Sodium Aescinate]
Data returned: 93.2

Data request: Let us now turn to CC(C)c1cc(C(=O)N2Cc3ccc(CN4CCN(C)CC4)cc3C2)c(O)cc1O
Data returned: 22.8

Data request: Let us now turn to O=C(O)c1ccc(Br)c(O)c1 [4-Bromo-3-hydroxybenzoic acid]
Data returned: 108

====

Test system: OCI-AML2;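 also: after 48 h exposure read by CellTiter-Glo luminescence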
Assay: cell viability relative to vehicle control; higher = less cytotoxic
Settings: 10 µM; SRSF2 genotype: P95H/wt
quantity: cell viability (%)
Just the number in %, nothing appended.

Data request: Entry Cc1ccc(Cl)cc1N(CC(=O)Nc1c(F)cccc1F)S(C)(=O)=O : reported cell viability = ?
Data returned: 110

Data request: Let us now turn to COc1ccc(CNCc2cccc3ccccc23)cc1
Data returned: 92.4

Data request: Let us now turn to OC[C@H]1NC[C@H](O)[C@@H](O)[C@@H]1O [1-Deoxynojirimycin]
Data returned: 96.4

Data request: Let us now turn to COC(=O)C1=CO[C@@H](O[C@@H]2O[C@H](CO)[C@@H](O)[C@H](O)[C@H]2O)[C@@H]2[C@@]3(C)O[C@H]3[C@@H](O)[C@]12O [Sesamoside]
Data returned: 104

Data request: Let us now turn to Cc1c(NC(=O)c2ccc(C(C)(C)C)cc2)cccc1-c1cn(C)c(=O)c(Nc2ccc(C(=O)N3CCOCC3)cc2)n1
Data returned: 82

Data request: Let us now turn to Cc1c(NC(=O)OC[C@@H]2COCCN2)cn2ncnc(Nc3ccc4c(cnn4Cc4cccc(F)c4)c3)c12
Data returned: 68.7

Data request: Let us now turn to C[C@@H](O)[C@H]1C(=O)N2C(C(=O)O)=C(S[C@@H]3CN[C@H](CNS(N)(=O)=O)C3)[C@H](C)[C@H]12 [Doripenem Hydrate]
Data returned: 96.4

Data request: Let us now turn to CC#C[C@]1(O)CC[C@H]2[C@@H]3CCC4=CC(=O)CCC4=C3[C@@H](c3ccc(N(C)C)cc3)C[C@@]21C [Mifepristone (Mifeprex)]
Data returned: 104
